measured target: Porcine ventricle myofibrils (ventricular myosin ATPase) (Sus scrofa, UniProt P79293)
Construct: Myofibrils from porcine cardiac muscle was isolated from the left ventricle of Yucatan minipigs; tissue Exemplar Genetics; host or cells: left ventricle of Yucatan minipigs, myofibrils prepared in house
Sequence (P79293 whole entry): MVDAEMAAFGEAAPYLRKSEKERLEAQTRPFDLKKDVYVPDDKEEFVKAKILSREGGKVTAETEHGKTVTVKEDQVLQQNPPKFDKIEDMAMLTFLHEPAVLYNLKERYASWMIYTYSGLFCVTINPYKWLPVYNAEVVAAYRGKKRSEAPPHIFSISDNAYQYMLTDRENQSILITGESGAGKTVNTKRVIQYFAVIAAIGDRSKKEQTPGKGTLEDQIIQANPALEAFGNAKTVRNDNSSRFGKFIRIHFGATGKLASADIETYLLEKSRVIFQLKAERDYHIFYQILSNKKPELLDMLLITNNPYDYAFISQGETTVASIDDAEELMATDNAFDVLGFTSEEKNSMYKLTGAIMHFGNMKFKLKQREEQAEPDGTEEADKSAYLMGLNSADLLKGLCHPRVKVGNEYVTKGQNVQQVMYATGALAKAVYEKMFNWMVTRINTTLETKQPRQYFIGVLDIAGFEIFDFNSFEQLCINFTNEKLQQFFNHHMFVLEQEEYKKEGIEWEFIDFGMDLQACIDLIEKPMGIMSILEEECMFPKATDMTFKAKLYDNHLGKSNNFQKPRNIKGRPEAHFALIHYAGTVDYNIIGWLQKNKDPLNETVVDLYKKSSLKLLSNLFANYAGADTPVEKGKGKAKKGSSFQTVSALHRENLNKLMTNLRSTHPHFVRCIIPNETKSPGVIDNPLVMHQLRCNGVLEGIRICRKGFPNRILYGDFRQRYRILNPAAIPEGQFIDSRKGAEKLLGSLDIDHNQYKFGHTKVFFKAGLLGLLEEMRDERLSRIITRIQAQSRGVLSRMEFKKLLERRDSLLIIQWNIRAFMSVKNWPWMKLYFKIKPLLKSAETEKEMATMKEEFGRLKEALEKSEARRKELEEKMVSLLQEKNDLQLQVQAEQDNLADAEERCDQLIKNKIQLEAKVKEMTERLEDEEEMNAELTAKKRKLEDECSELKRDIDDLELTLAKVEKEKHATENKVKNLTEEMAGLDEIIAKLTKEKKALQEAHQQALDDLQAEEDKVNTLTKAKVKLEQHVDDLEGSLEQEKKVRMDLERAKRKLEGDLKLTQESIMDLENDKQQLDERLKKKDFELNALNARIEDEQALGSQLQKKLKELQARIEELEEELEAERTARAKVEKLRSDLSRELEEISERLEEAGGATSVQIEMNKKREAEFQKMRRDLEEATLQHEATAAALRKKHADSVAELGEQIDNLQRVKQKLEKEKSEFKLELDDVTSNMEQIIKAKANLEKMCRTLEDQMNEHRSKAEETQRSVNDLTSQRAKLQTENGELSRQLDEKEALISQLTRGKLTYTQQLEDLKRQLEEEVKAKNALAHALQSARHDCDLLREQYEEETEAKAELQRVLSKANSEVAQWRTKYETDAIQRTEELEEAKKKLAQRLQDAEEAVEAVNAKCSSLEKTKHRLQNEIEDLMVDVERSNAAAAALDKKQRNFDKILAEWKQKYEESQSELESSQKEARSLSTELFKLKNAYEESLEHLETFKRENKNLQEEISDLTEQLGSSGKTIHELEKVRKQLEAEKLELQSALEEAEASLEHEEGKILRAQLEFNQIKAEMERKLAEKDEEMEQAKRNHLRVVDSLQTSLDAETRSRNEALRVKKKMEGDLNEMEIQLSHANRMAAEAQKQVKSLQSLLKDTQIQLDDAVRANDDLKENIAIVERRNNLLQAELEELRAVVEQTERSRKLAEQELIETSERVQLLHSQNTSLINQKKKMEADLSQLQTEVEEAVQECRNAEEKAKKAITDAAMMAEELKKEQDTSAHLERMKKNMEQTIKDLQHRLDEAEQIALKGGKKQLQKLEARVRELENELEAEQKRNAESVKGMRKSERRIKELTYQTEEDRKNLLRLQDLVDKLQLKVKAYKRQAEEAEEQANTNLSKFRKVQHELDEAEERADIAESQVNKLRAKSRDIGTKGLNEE
assay explanation: Myofibril ATPase assay, porcine ventricle myofibrils
Assay type: biochemical, porcine (Yucatan minipigs)
assay conditions: porcine ventricle myofibrils; Y75 value
Please go through the items and note down their Ventricular EC25.
Give bare numbers, in µM.

Give one value of Ventricular EC25 per listed compound.
1. Cc1c(CC(=O)N[C@@H](C)c2ccc(F)cc2F)c(=O)[nH]c2ccc(O)nc12
2. Cc1nc(C#N)cnc1[C@@H](C)NC(=O)Cc1c(C)c2c(C)nccc2[nH]c1=O
3. Cc1nccc2[nH]c(=O)c(CC(=O)N[C@H](CO)c3ccc(C#N)cc3F)c(C)c12 (single isomer, unassigned)
4. Cc1c(CC(=O)N[C@H](CO)c2ncc(F)cc2F)c(=O)[nH]c2ccnc(C#N)c12
5. CC(=O)N1C[C@H](NC(=O)Cc2c(C)c3c(C)nccc3[nH]c2=O)c2c(F)cc(F)cc21
6. C[C@H](NC(=O)[C@H](C)c1cc2cnccc2[nH]c1=O)c1ccc(F)cc1F (single isomer, unassigned)

100.00
11.59
11.53
100.00
100.00
100.00

API: value(readout= Ventricular EC25, system= Porcine ventricle myofibrils (ventricular myosin ATPase) (Sus scrofa, UniProt P79293), query= Cc1nccc2[nH]c(=O)c(CC(=O)N[C@H](C)c3ccccn3)c(C)c12 (single isomer, unassigned) )
100.00

---

Test system: Rabbit Psoas myofibrils (skeletal myosin ATPase)
assay explanation: Myofibril ATPase assay, rabbit psoas (skeletal) myofibrils
Format: biochemical
assay conditions: rabbit psoas myofibrils; Y75 value
For each entry below, report its Skeletal EC25 value.
Give bare numbers, in nM.

The following compounds have reported results that may help.
INSERT INTO assay_data (compound, measured) VALUES
  ('Cc1nccc2[nH]c(=O)c(CC(=O)N[C@H]3CCc4cc(C#N)cc(F)c43)c(C)c12 (single isomer, unassigned)', 20),
  ('Cc1ccc2[nH]c(=O)c(CC(=O)N[C@H](C)c3ncc(C#N)cc3F)c(C)c2n1', 4030),
  ('Cc1nccc2[nH]c(=O)c(CC(=O)N[C@@H](CO)c3ccccn3)c(C)c12 (single isomer, unassigned)', 100000);

Parameters: items (list). Returns: Skeletal EC25 for each item.
1. Cc1c(CC(=O)N[C@@H](CO)c2ncccc2F)c(=O)[nH]c2ccnc(C#N)c12 (single isomer, unassigned)
2. Cc1c(CC(=O)N[C@H](C)c2cnc(C#N)nc2)c(=O)[nH]c2ccc(C(F)(F)F)nc12
3. Cc1c(CC(=O)N[C@@H](CO)c2ccc(C#N)cc2F)c(=O)[nH]c2ccc(C#N)nc12

[590, 100000, 2270]

What measured Skeletal EC25 goes with C[C@H](NC(=O)[C@H](C)c1c(C(F)(F)F)c2cnccc2[nH]c1=O)c1ccc(F)cc1F (single isomer, unassigned) ?
2020

---

Test system: Porcine atria myofibrils (atrial myosin ATPase)
assay explanation: Myofibril ATPase assay, porcine atria myofibrils
Assay type: biochemical
assay conditions: porcine atria myofibrils; Y75 value (75% activity relative to no compound)
measurement type: Atrial EC25 (µM)
Answers are plain numbers, in µM.

INSERT INTO results (compound, measured_target, measurement_type, measured) VALUES
  ('Cc1c(CC(=O)N[C@@H](C)c2ccc(C#N)cc2F)c(=O)[nH]c2cnnc(C#N)c12', 'Porcine atria myofibrils (atrial myosin ATPase)', 'Atrial EC25', 0.10),
  ('Cc1nccc2[nH]c(=O)c(CC(=O)N[C@@H](C)c3ccc(S(C)(=O)=O)cc3F)c(C)c12 (single isomer, unassigned)', 'Porcine atria myofibrils (atrial myosin ATPase)', 'Atrial EC25', 100.00),
  ('Cc1nccc2[nH]c(=O)c([C@H](C)C(=O)N[C@@H](C)c3ccc(C#N)cc3F)c(C)c12 (single isomer, unassigned)', 'Porcine atria myofibrils (atrial myosin ATPase)', 'Atrial EC25', 0.11);

Hi there! I need Atrial EC25 for each item below, if you can.
1. Cc1nccc2[nH]c(=O)c([C@H](C)C(=O)N[C@@H](C)c3ccc(F)cc3F)c(C(F)(F)F)c12 (single isomer, unassigned)
2. Cc1nccc2[nH]c(=O)c(C(F)(F)C(=O)N[C@@H](C)c3cnc(C#N)cn3)c(C)c12 (single isomer, unassigned)
3. Cc1nccc2[nH]c(=O)c(CC(=O)N[C@H](CO)Cc3ccccc3)c(C)c12

1: 20.63; 2: 14.61; 3: 100.00

---

Provide the recorded Ventricular EC25 for the entries that follow.
measured target: Porcine ventricle myofibrils (ventricular myosin ATPase) (Sus scrofa, UniProt P79293)
Construct: Myofibrils from porcine cardiac muscle was isolated from the left ventricle of Yucatan minipigs; tissue Exemplar Genetics; host or cells: left ventricle of Yucatan minipigs, myofibrils prepared in house
assay explanation: Myofibril ATPase assay, porcine ventricle myofibrils
Assay type: biochemical, porcine (Yucatan minipigs)
assay conditions: porcine ventricle myofibrils; Y75 value
One number for each entry, in µM.

INSERT INTO measurements (molecule, measurement_type, unit_descriptor, measured) VALUES
  ('Cc1c(CC(=O)N[C@@H](C)c2ccc(F)cc2F)c(=O)[nH]c2ccnc(OCC(C)(C)F)c12 [compound 372]', 'Ventricular EC25', 'µM', 100.00),
  ('Cc1nccc2[nH]c(=O)c(CC(=O)N[C@H]3CCc4cc(C#N)cc(F)c43)c(C)c12 (single isomer, unassigned) [compound 198]', 'Ventricular EC25', 'µM', 0.18),
  ('C[C@H](NC(=O)[C@H](C)c1cc2nc(C#N)ccc2[nH]c1=O)c1ccc(F)cc1F (single isomer, unassigned) [compound 257]', 'Ventricular EC25', 'µM', 100.00),
  ('Cc1c(CC(=O)N[C@@H](C)c2ncc(C#N)cc2F)c(=O)[nH]c2ccc(OC(F)(F)F)nc12 [compound 456]', 'Ventricular EC25', 'µM', 3.69),
  ('Cc1c(CC(=O)N[C@@H](C)c2ccc(S(C)(=O)=O)cc2F)c(=O)[nH]c2ccnc(C#N)c12 (single isomer, unassigned) [compound 215]', 'Ventricular EC25', 'µM', 100.00);

# input for lookup
Look at this molecule and give its reported Ventricular EC25. Cc1cccc([C@@H](CO)NC(=O)Cc2c(C)c3c(C)nccc3[nH]c2=O)c1 (single isomer, unassigned) [compound 294]
100.00

---

I'd appreciate it if you could supply Ventricular EC25 values for the items below.
measured target: Porcine ventricle myofibrils (ventricular myosin ATPase) (Sus scrofa, UniProt P79293)
Construct: Myofibrils from porcine cardiac muscle was isolated from the left ventricle of Yucatan minipigs; tissue Exemplar Genetics; host or cells: left ventricle of Yucatan minipigs, myofibrils prepared in house
assay explanation: Myofibril ATPase assay, porcine ventricle myofibrils
Format: biochemical, porcine (Yucatan minipigs)
assay conditions: Y75 value (no ‡ mark); porcine ventricle myofibrils
Experimental: Example 1. Myofibril ATPase Assay Myofibril ATPase assays are known in the art to be useful in evaluating small molecules for the treatment of HCM and other cardiac indications. Myosin ATPase activity is assessed by using a coupled reaction system, in which ADP generated by the myosin ATPase function is coupled to the disappearance of NADH through the pyruvate kinase/lactate dehydrogenase (PK-LDH) system. […]
One number for each entry, in µM.

INSERT INTO assay_data (compound, measured) VALUES
  ('Cc1c(CC(=O)N[C@H](C)c2ccc(C#N)cn2)c(=O)[nH]c2cccc(C#N)c12', 1.49),
  ('Cc1c(C(F)(F)C(=O)N[C@@H](C)c2ccc(C#N)nn2)c(=O)[nH]c2ccc(F)cc12 (single isomer, unassigned)', 16.01),
  ('CCc1c(CC(=O)N[C@@H](C)c2ncc(C#N)cn2)c(=O)[nH]c2ccc(F)c(C)c12 (single isomer, unassigned)', 0.21),
  ('Cc1nc(C#N)ncc1[C@H](C)NC(=O)Cc1c(C)c2cc(F)ccc2[nH]c1=O', 0.22),
  ('Cc1nc([C@@H](C)NC(=O)Cc2c(C)c3c(C)c(F)ccc3[nH]c2=O)ncc1C#N (single isomer, unassigned)', 3.67),
  ('N#Cc1cnc2c(c1)CC[C@H]2NC(=O)Cc1cc2c(F)c(F)ccc2[nH]c1=O (single isomer, unassigned)', 1.27);

Consider now this further compound.
Ventricular EC25 for "CNc1c(CC(=O)N[C@@H](C)c2ccc(F)cc2F)c(=O)[nH]c2ccccc12" ?
9.83

---

Test system: Rabbit Psoas myofibrils (skeletal myosin ATPase)
assay explanation: Myofibril ATPase assay, rabbit psoas (skeletal) myofibrils
Type: biochemical
assay conditions: Y75 value (no ‡ mark); rabbit psoas myofibrils
measurement type: Skeletal EC25 (nM)
One number for each entry, in nM.

Example cases with answers are listed next.
INSERT INTO measurements (molecule, measurement_type, measured) VALUES
  ('C[C@@H](NC(=O)Cc1cc2cc(F)ccc2[nH]c1=O)c1ccc(C#N)cn1', 'Skeletal EC25', 100000),
  ('Cc1c(C(F)(F)C(=O)N[C@H](C)c2cc(C#N)ccn2)c(=O)[nH]c2ccc(F)cc12 (single isomer, unassigned)', 'Skeletal EC25', 14650),
  ('Cc1c(CC(=O)N[C@H](C)c2ncc(C#N)cn2)c(=O)[nH]c2ccc(F)c(C3CC3)c12 (single isomer, unassigned)', 'Skeletal EC25', 1090),
  ('Cc1c(CC(=O)N[C@@H](C)c2ccc(C#N)cc2F)c(=O)[nH]c2ccc(F)c(C#N)c12', 'Skeletal EC25', 10),
  ('Cc1c(CC(=O)N[C@H](C)c2ncc(C#N)cn2)c(=O)[nH]c2ccc(F)c(C#N)c12 (single isomer, unassigned)', 'Skeletal EC25', 150);

Go through the list and state Skeletal EC25 for each entry.
1. Cc1c(C(F)(F)C(=O)N[C@@H](C)c2ncc(C#N)cn2)c(=O)[nH]c2ccc(F)c(C(F)(F)F)c12 (single isomer, unassigned)
2. C[C@@H](NC(=O)C(F)(F)c1cc2c(F)c(F)ccc2[nH]c1=O)c1cccc(C#N)n1 (single isomer, unassigned)
3. Cc1nc(C#N)ncc1[C@@H](C)NC(=O)Cc1c(C)c2cc(F)ccc2[nH]c1=O
4. Cc1c(CC(=O)N[C@@H](C)c2ccc(C#N)cc2F)c(=O)[nH]c2ccc(F)c(C3CC3)c12

[160, 100000, 780, 30]
